Reported inhibition values follow for various compounds
Target: Sulfhydryl oxidase 1 (Homo sapiens)
Test: QSOX1 enzyme inhibitors, primary screen, biochemical, ROS-Glo H2O2 luminescence, HTS (AID 1347418)
Settings: recombinant QSOX1, ROS-Glo H2O2 luminescence; at 12.5 µM; hits give high values; active = any value above zero
Out of some 1,300 compounds screened, about 750 (58%) were called active. The list shows a part of the results.
quantity-name: inhibition (%)

• CCN(CC)CCOCCOC(=O)C1(c2ccccc2)CCCC1 = 6.3
• Oc1ccc(/C=C/c2ccc(/C=C/c3ccc(O)cc3)c(Br)c2)cc1 = 1
• CN[C@H](CC(C)C)C(=O)N[C@H]1C(=O)N[C@@H](CC(N)=O)C(=O)N[C@H]2C(=O)N[C@H]3C(=O)N[C@H](C(=O)N[C@H](C(=O)O)c4cc(O)cc(O)c4-c4cc3ccc4O)[C@H](O)c3ccc(c(Cl)c3)Oc3cc2cc(c3O[C@@H]2O[C@H](CO)[C@@H](O)[C@H](O)[C@H]2O[C@H]2C[C@](C)(N)[C@H](O)[C@H](C)O2)Oc2ccc(cc2Cl)[C@H]1O = 3.1
• CCN(CC)CCOC(=O)C1(C2CCCCC2)CCCCC1 = -1.9
• COc1cc2c(cc1O)CC[C@@H]1[C@@H]2CC[C@]2(C)[C@@H](O)CC[C@@H]12 = 36
• COc1ccc2c(c1)CCC1C2CC[C@@]2(C)C1CC[C@@H]2NCCCCCCN1C(=O)C=CC1=O (stereo partly drawn) = -7.4
• CC(CN1c2ccccc2Sc2ccccc21)N(C)C (stereo not drawn) = 43.7
• Oc1ccc(/C=C/c2cc(O)cc(O)c2)cc1 = 23.2

###

Biological target: Sulfhydryl oxidase 1 (Homo sapiens) (UniProt O00391)
Sequence (O00391 whole entry, looked up): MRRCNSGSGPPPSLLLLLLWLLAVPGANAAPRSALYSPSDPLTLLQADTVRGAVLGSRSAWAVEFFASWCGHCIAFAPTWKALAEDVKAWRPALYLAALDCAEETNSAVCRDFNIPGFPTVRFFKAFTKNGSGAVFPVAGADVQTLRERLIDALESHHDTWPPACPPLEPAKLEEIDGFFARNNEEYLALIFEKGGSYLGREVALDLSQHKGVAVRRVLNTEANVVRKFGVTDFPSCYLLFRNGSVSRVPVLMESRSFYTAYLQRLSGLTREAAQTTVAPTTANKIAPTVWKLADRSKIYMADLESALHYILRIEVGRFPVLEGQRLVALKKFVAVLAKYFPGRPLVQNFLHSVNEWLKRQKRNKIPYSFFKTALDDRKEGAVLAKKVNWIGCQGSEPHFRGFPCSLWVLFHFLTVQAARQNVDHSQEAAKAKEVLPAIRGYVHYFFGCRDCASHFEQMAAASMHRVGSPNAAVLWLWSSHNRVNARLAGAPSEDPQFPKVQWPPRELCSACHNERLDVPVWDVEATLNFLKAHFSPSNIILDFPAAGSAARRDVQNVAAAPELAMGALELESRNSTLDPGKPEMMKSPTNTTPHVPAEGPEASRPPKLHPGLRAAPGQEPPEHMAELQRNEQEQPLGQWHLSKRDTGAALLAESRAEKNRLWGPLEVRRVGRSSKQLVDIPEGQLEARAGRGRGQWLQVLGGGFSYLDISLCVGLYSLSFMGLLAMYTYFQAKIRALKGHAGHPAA
Assay: QSOX1 enzyme inhibitors, primary screen, biochemical, ROS-Glo H2O2 luminescence, HTS (AID 1347418)
Conditions: recombinant QSOX1, ROS-Glo H2O2 luminescence; at 12.5 µM; hits give high values; active = any value above zero
Among all 1,300 compounds or so, about 750 (58%) were called active. The list shows a part of the results.
Outcomes: active, inactive

• CCn1cc(C(=O)O)c(=O)c2cc(F)c(N3CCNC(C)C3)c(F)c21 (stereo unspecified) = inactive
• CCn1cc(C(=O)O)c(=O)c2ccc(C)nc21 = inactive
• CCCCOc1cc(CC2CNC(=O)N2)ccc1OC (stereo unspecified) = inactive
• Cc1ccc(Cl)c(Nc2ccccc2C(=O)O)c1Cl = active
• COC(=O)[C@@H]1[C@H]2C[C@H]3c4[nH]c5ccccc5c4CCN3C[C@@H]2CC[C@@H]1O = active
• COC(=O)[C@H]1[C@H]2C[C@H]3c4[nH]c5ccccc5c4CCN3C[C@H]2CC[C@@H]1O = active

###

Biological target: Sulfhydryl oxidase 1 (Homo sapiens) (UniProt O00391)
Assay: QSOX1 enzyme inhibitors, primary screen, biochemical, ROS-Glo H2O2 luminescence, HTS (AID 1347418)
Settings: recombinant QSOX1, ROS-Glo H2O2 luminescence; at 12.5 µM; hits give high values; active = any value above zero
Among all 1,300 compounds or so, about 750 (58%) were called active. Some of the results follow.
quantity-name: inhibition (%)

• CCCCCCCCCCCCCCCCCCNC(=O)OCC(COP(=O)([O-])OCC[n+]1ccsc1)OC (stereo unspecified) = -4.6
• O=C1c2ccccc2C(=O)c2c(NCCc3ccc(O)cc3)ccc(NCCc3ccc(O)cc3)c21 = 11
• CC(=O)Oc1cc(C(C)C)c(OCCN(C)C)cc1C = 0.4
• CCCCCCCCCCCCCCCCCCOC[C@H](COP(=O)([O-])OCC[N+](C)(C)C)OC = 3.3
• O=S(=O)(c1cccc2c(I)cccc12)N1CCCNCC1 = 8.3
• C[C@H](CS)C(=O)N1CCC[C@H]1C(=O)O = 0.1
• COc1cc([C@@H]2c3cc4c(cc3[C@@H](O[C@@H]3O[C@@H]5CO[C@@H](C)O[C@H]5[C@H](O)[C@H]3O)[C@H]3COC(=O)[C@H]23)OCO4)cc(OC)c1O = 0
• Cc1cc2c(C(C)C)c(O)c(O)c(C=O)c2c(O)c1-c1c(C)cc2c(C(C)C)c(O)c(O)c(C=O)c2c1O = 50.4
• O=C(O)C1=CCCNC1 = -2.5
• CC(C)COC(=O)OCN1C(=O)CN(CCN2CC(=O)N(COC(=O)OCC(C)C)C(=O)C2)CC1=O = 2.6
• N[C@H](C(=O)O)[C@H](O)C(=O)O = 0.9
• N[C@@H](CCC(=O)N[C@H](CSN=O)C(=O)NCC(=O)O)C(=O)O = -4.8
• COc1cc([C@@H]2c3cc4c(cc3[C@H](O)C3COC(=O)[C@@H]32)OCO4)cc(OC)c1OC (stereo partly specified) = 1.1
• Oc1ccc(Cn2cc[nH]c2=S)cc1 = 5.9
• O=C(O)c1cc2cc(F)ccc2[nH]1 = 6.8
• CC(=O)Nc1nnc(S(N)(=O)=O)s1 = 0.8
• C=C1C[C@@]23CC[C@H]4[C@@](C)(CCC[C@@]4(C)C(=O)OC4OC(CO)C(O)C(O)C4O)[C@@H]2CCC1(OC1OC(CO)C(O)C(O)C1OC1OC(CO)C(O)C(O)C1O)C3 (stereo partly specified) = 5.4
• COc1ccc2c(c1OC)C(=O)O[C@@H]2[C@H]1c2c(cc3c(c2OC)OCO3)CCN1C = -4.2
• O=C(O)CCC(=O)N1CCCC1C(=O)O (stereo unspecified) = 4.1
• CNCCC(Oc1ccccc1C)c1ccccc1 (stereo unspecified) = 0
• CC(=O)Oc1ccccc1C(=O)O = 0.3
